test method notes: Selectivity index, ratio of CC50 for African green monkey Vero cells to EC50 for Chikungunya virus
Type: toxicity
condition description: read-out: Ratio CC50/EC50

# compound, selectivity ratio
measured = [
    ("C/C(=C\\C(=O)O[C@@H]1[C@H](C)C[C@H]2O[C@]1(O)[C@@H](O)[C@H]1CC[C@H](O1)C(C)(C)/C=C/[C@H](C)C2=O)C(C)O (some centres not stated)", 3.2),
    ("CC(=O)C(C)/C(C)=C/C(=O)O[C@@H]1[C@H](C)C[C@H]2O[C@]1(O)[C@@H](O)[C@H]1CC[C@H](O1)C(C)(C)/C=C/[C@H](C)C2=O (some centres not stated)", 8.8),
]
